meta.source: PubChem BioAssay (NCI)

Task for the reader: assign each of the following compounds its reported growth inhibition.
Test: NCI Yeast Anticancer Drug Screen. Data for the sgs1 mgt1 strain (AID 161);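 also: 0% = growth of cultures given vehicle only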
Conditions: S. cerevisiae sgs1 mgt1 strain, at 50.0 µM, hits give high values
This is part of a sample that, as a whole, favours compounds with a hit. Of some 79,000 tested, about 15% had one in any assay. Active and inactive are the calls of the source. Rule as the data show it: active = growth inhibition above about 70%; inactive = the rest.

Lab note: `CN(C)Cc1ccc(O)c(CN(C)C)n1` gave growth inhibition of -14.8% (inactive)

Lab note: `CCOC(=O)/C(C#N)=C/Nc1c(C)n(C)n(-c2ccccc2)c1=O` gave growth inhibition of 6.75% (inactive)

Lab note: `CCCCOC(=O)c1ccc(NC(=O)CCCN(CC)CC)cc1` gave growth inhibition of 0.85% (inactive)

Lab note: `CCCCC#CCN(CCCC)CCCC` gave growth inhibition of -2.55% (inactive)

Lab note: CC1(c2ccc(-c3ccccc3)cc2)NC(=O)NC1=O (configuration not stated) gave growth inhibition of 14.9% (inactive)

Lab note: S=C1Nc2ccccc2C2CC=NN12 (configuration not stated) gave growth inhibition of 10.6% (inactive)

Lab note: COC1CCC2(C)C3CCC4C(=CCC5C(C)(C)C(O)CCC45C)CC3(C)CCC2C1(C)C (configuration not stated) gave growth inhibition of -31.3% (inactive)

Lab note: CCOC(=O)C(C(C)=O)C(CC(=O)OC)NC(=O)OCc1ccccc1 (configuration not stated) gave growth inhibition of -60.6% (inactive)

Lab note: `COc1ccccc1/C=C(\C#N)C(=O)O` gave growth inhibition of -0.75% (inactive)

Lab note: COC(=O)CC1(C(=O)OC)Nc2ccc(Cl)cc2C(=O)O1 (configuration not stated) gave growth inhibition of 12.5% (inactive)

Lab note: OCC1OC(n2cnc3[nH]cnc(=S)c32)C(O)C1O (configuration not stated) gave growth inhibition of 0.35% (inactive)

Lab note: `O=[N+]([O-])c1ccc(C=Nc2ccccc2)cc1` gave growth inhibition of 30.9% (inactive)

---

Experiment: NCI Yeast Anticancer Drug Screen. Data for the mlh1 rad18 strain (AID 175)
Details: S. cerevisiae mlh1 rad18 strain growth inhibition; at 50.0 µM; hits give high values
Procedure: Growth inhibition of yeast strains with defined genetic alterations is measured as a screen for potential anti-cancer activity. Selected strains with alterations in DNA damage repair or cell cycle control were exposed to compounds and growth inhibition was measured relative to vehicle treated controls. The strain used in this assay is mlh1 rad18
Compounds without any hit were thinned out: in the full panel of roughly 79,000, 15% have a hit.
Task for the reader: assign each of the following compounds its reported growth inhibition.
// units = %; emit number, no label

Lab note: `O=CNc1ccccc1O` gave growth inhibition of 14.9

Lab note: `O=C(N=Nc1c(O)[nH]c2ccc(Br)cc12)c1ccco1` gave growth inhibition of 43

Lab note: `CC(=O)Nc1cc(OC(C)=O)c(OC(C)=O)c2ccccc12` gave growth inhibition of 1.1

Lab note: c1ccc(C2OC(c3ccccc3)c3ccccc32)cc1 (stereo not given) gave growth inhibition of 12.2

Lab note: `COc1ccc(-c2cc(-c3ccccc3)nc(-c3cccc([N+](=O)[O-])c3)c2)cc1` gave growth inhibition of 18.4

Lab note: `O=Cc1cc(C(=O)c2ccccn2)c2cc(Cl)cc(Cl)c2n1` gave growth inhibition of 11.6

Lab note: `Cc1ccsc1/C=N/Nc1cc(C)c2ccccc2n1` gave growth inhibition of 16.2

Lab note: `Cn1c(=O)c2[nH]c(Cl)nc2n(C)c1=O` gave growth inhibition of -8.55

Lab note: `CN(C)C=NCCN1CCOCC1` gave growth inhibition of -47.6

Lab note: `Cc1nc(C(=O)O)c(C(=O)O)[nH]1` gave growth inhibition of 1.2

Lab note: O=[N+]([O-])c1ccc(C[Se]c2ncnc3c2ncn3C2OC(CO)C(O)C2O)cc1 (stereo not given) gave growth inhibition of -8.35

Lab note: Oc1ccc(Br)cc1C1Nc2ccccc2S1 (stereo not given) gave growth inhibition of -1.85

Lab note: Nc1ncnc2c1ncn2CCOCC(O)CO (stereo not given) gave growth inhibition of -19.9

Lab note: O=C1c2cccc3c([N+](=O)[O-])ccc(c23)C(=O)N1CC1CCCO1 (stereo not given) gave growth inhibition of 73.5

Lab note: COc1cccc(C2ON=C(c3ccccc3)N2C23CC4CC(CC(C4)C2)C3)c1 (stereo not given) gave growth inhibition of 14.9

Lab note: `C=C1C(=O)[C@@]23CC[C@@H]4[C@@]5(C)CCC[C@@]4(OC5=O)[C@@]2(C)CC[C@@H]1C3` gave growth inhibition of 92.3

Lab note: N#CCCC(C(=O)O)C(=O)CN1C(=O)c2ccccc2C1=O (stereo not given) gave growth inhibition of 7.6

Lab note: `CC(=O)Nc1ccc(S(=O)(=O)CO)cc1` gave growth inhibition of 16.8

Lab note: `CCN1C(=NCCO)NS(=O)(=O)c2ccccc21` gave growth inhibition of 0.35

Lab note: CN1C(=O)C(=O)N2c3ccc(Cl)cc3C3(c4ccccc4)N=CC12O3 (stereo not given) gave growth inhibition of -3.1

Lab note: N/N=C(\c1ccccc1)C(Nc1ccccc1)c1ccccc1 (stereo not given) gave growth inhibition of 7.9

Lab note: CCCCCCCC/C=C\CCCCCCC(F)C(=O)O (stereo not given) gave growth inhibition of -43

Lab note: `COc1cc2c(cc1OC)NC(C)=CC(C)=N2` gave growth inhibition of 15.9

Lab note: COC1OC(COS(C)(=O)=O)C(OS(C)(=O)=O)C(OC(=O)c2ccccc2)C1OS(C)(=O)=O (stereo not given) gave growth inhibition of 20.6

Lab note: `CCC(CC)NNC(CC)CC` gave growth inhibition of -8.25
